Provide the reported activity at 10 µM of each item.
system: RPMI-8226; experiment: NCI60 one-dose screen; format: cell-based; conditions: Homo sapiens, RPMI-8226, read-out: Growth percent
Only the number, expressed in %, is required.

### Prompt Please provide the recorded activity at 10 µM for CC[C@]12C=CCN3CC[C@@]4(c5ccc(OC)cc5N(C)[C@H]4[C@@](O)(C(=O)OC)[C@@H]1OC(=O)CCCC[P+](c1ccccc1)(c1ccccc1)c1ccccc1)[C@@H]32 [compound 4, reference compound] , tested on RPMI-8226.
### Response 15.4

### Prompt Please provide the recorded activity at 10 µM for CC[C@]12C=CCN3CC[C@@]4(c5ccc(OC)cc5N(C)[C@H]4[C@@](O)(C(=O)OC)[C@@H]1OC(=O)CCCC[P+](c1ccc(OC)cc1)(c1ccc(OC)cc1)c1ccc(OC)cc1)[C@@H]32 [10b] , tested on RPMI-8226.
### Response -68.8

### Prompt Please provide the recorded activity at 10 µM for CC[C@]12C=CCN3CC[C@@]4(c5ccc(OC)cc5N(C)[C@H]4[C@@](O)(C(=O)OC)[C@@H]1OC(=O)CCCC[P+](C1CCCCC1)(C1CCCCC1)C1CCCCC1)[C@@H]32 [10d] , tested on RPMI-8226.
### Response -45

### Prompt Please provide the recorded activity at 10 µM for CCC12C=CCN3CC[C@@]4(c5ccc(OC)cc5N(C)[C@H]4[C@@](O)(C(=O)OC)[C@@H]1OC(C)=O)[C@@H]32 (some centres unmarked) [compound 2, vindoline] , tested on RPMI-8226.
### Response 101

### Prompt Please provide the recorded activity at 10 µM for CC[C@]12C=CCN3CC[C@@]4(c5ccc(OC)cc5N(C)[C@H]4[C@@](O)(C(=O)OC)[C@@H]1OC(=O)CCCC[P+](c1ccc(C)cc1)(c1ccc(C)cc1)c1ccc(C)cc1)[C@@H]32 [10a] , tested on RPMI-8226.
### Response -46

###

test system: HCT-15; experiment: NCI60 five-dose screen; assay type: cell-based; conditions: Homo sapiens, HCT-15
property: GI50 (µM)
Only the number, expressed in µM, is required.

### Prompt // GI50 lookup, key: CC[C@]12C=CCN3CC[C@@]4(c5ccc(OC)cc5N(C)[C@H]4[C@@](O)(C(=O)OC)[C@@H]1OC(=O)CCCC[P+](C1CCCCC1)(C1CCCCC1)C1CCCCC1)[C@@H]32 [10d]
### Response 16.1

### Prompt // GI50 lookup, key: CC[C@]12C=CCN3CC[C@@]4(c5ccc(OC)cc5N(C)[C@H]4[C@@](O)(C(=O)OC)[C@@H]1OC(=O)CCCC[P+](c1ccccc1)(c1ccccc1)c1ccccc1)[C@@H]32 [compound 4, reference compound]
### Response 18.6

### Prompt // GI50 lookup, key: CC[C@]12C=CCN3CC[C@@]4(c5ccc(OC)cc5N(C)[C@H]4[C@@](O)(C(=O)OC)[C@@H]1OC(=O)CCCC[P+](c1ccc(OC)cc1)(c1ccc(OC)cc1)c1ccc(OC)cc1)[C@@H]32 [10b]
### Response 8.79

###

Provide the reported activity at 10 µM of each item.
tested on: SK-MEL-2; assay: NCI60 one-dose screen; assay type: cell-based; settings: Homo sapiens, SK-MEL-2, read-out: Growth percent
Only the number, expressed in %, is required.

### Prompt Please provide the recorded activity at 10 µM for `CC[C@]12C=CCN3CC[C@@]4(c5ccc(OC)cc5N(C)[C@H]4[C@@](O)(C(=O)OC)[C@@H]1OC(=O)CCC[P+](C1CCCCC1)(C1CCCCC1)C1CCCCC1)[C@@H]32` , tested on SK-MEL-2.
### Response -84.9

### Prompt Please provide the recorded activity at 10 µM for CC[C@]12C=CCN3CC[C@@]4(c5ccc(OC)cc5N(C)[C@H]4[C@@](O)(C(=O)OC)[C@@H]1OC(=O)CCCC[P+](C1CCCCC1)(C1CCCCC1)C1CCCCC1)[C@@H]32 [10d] , tested on SK-MEL-2.
### Response -88

### Prompt Please provide the recorded activity at 10 µM for `CC[C@]12C=CCN3CC[C@@]4(c5ccc(OC)cc5N(C)[C@H]4[C@@](O)(C(=O)OC)[C@@H]1OC(=O)CCC[P+](c1ccccc1)(c1ccccc1)c1ccccc1OC)[C@@H]32` , tested on SK-MEL-2.
### Response -98

###

test system: T-47D; test: NCI60 one-dose screen; format: cell-based; settings: Homo sapiens, T47D, read-out: Growth percent
Provide the reported activity at 10 µM of each item.
Only the number, expressed in %, is required.

### Prompt // activity at 10 µM lookup, key: CC[C@]12C=CCN3CC[C@@]4(c5ccc(OC)cc5N(C)[C@H]4[C@@](O)(C(=O)OC)[C@@H]1OC(=O)CCCC[P+](c1ccc(OC)cc1)(c1ccc(OC)cc1)c1ccc(OC)cc1)[C@@H]32 [10b]
### Response -46.6

### Prompt // activity at 10 µM lookup, key: CC[C@]12C=CCN3CC[C@@]4(c5ccc(OC)cc5N(C)[C@H]4[C@@](O)(C(=O)OC)[C@@H]1OC(=O)CCC[P+](c1ccccc1)(c1ccccc1)c1ccccc1OC)[C@@H]32 [9f]
### Response -25

### Prompt // activity at 10 µM lookup, key: CCC12C=CCN3CC[C@@]4(c5ccc(OC)cc5N(C)[C@H]4[C@@](O)(C(=O)OC)[C@@H]1OC(C)=O)[C@@H]32 (stereo partly shown) [compound 2, vindoline]
### Response 95.7

### Prompt // activity at 10 µM lookup, key: CC[C@]12C=CCN3CC[C@@]4(c5ccc(OC)cc5N(C)[C@H]4[C@@](O)(C(=O)OC)[C@@H]1OC(=O)CCCC[P+](c1ccccc1)(c1ccccc1)c1ccccc1)[C@@H]32 [compound 4, reference compound]
### Response 4.99

###

Provide the reported activity at 10 µM of each item.
tested on: MDA-MB-231/ATCC; assay: NCI60 one-dose screen; assay type: cell-based; details: Homo sapiens; MDA-MB-231/ATCC, 10 μM, one-dose; read-out: Growth percent
Param answer (str): number followed by unit.

### Prompt // activity at 10 µM lookup, key: CC[C@]12C=CCN3CC[C@@]4(c5ccc(OC)cc5N(C)[C@H]4[C@@](O)(C(=O)OC)[C@@H]1OC(=O)CCC[P+](c1ccccc1)(c1ccccc1)c1ccccc1)[C@@H]32 [compound 3, reference compound]
### Response 1.29%

### Prompt // activity at 10 µM lookup, key: CCC12C=CCN3CCC4(c5ccc(OC)cc5N(C)C4C(O)(C(=O)OC)C1OC(=O)c1ccc(C[P+](c4ccccc4)(c4ccccc4)c4ccccc4)cc1)C32 (stereo not shown)
### Response -91.5%

### Prompt // activity at 10 µM lookup, key: `CC[C@]12C=CCN3CC[C@@]4(c5ccc(OC)cc5N(C)[C@H]4[C@@](O)(C(=O)OC)[C@@H]1OC(=O)CCC[P+](c1ccc(OC)cc1)(c1ccc(OC)cc1)c1ccc(OC)cc1)[C@@H]32`
### Response -97%

### Prompt // activity at 10 µM lookup, key: CC[C@]12C=CCN3CC[C@@]4(c5ccc(OC)cc5N(C)[C@H]4[C@@](O)(C(=O)OC)[C@@H]1OC(=O)CCCC[P+](c1ccc(F)cc1)(c1ccc(F)cc1)c1ccc(F)cc1)[C@@H]32 [10c]
### Response 2.85%

###

system: 60 human tumor cell lines (NCI60); experiment: NCI60 five-dose screen, overall mean; type: cell-based; conditions: read-out: GI50 Mean, mean over all 60 human cancer cell lines
property: GI50 (nM)
Only the number, expressed in nM, is required.

### Prompt // GI50 lookup, key: CC[C@]12C=CCN3CC[C@@]4(c5ccc(OC)cc5N(C)[C@H]4[C@@](O)(C(=O)OC)[C@@H]1OC(=O)CCCC[P+](c1ccc(C)cc1)(c1ccc(C)cc1)c1ccc(C)cc1)[C@@H]32 [10a]
### Response 1230

### Prompt // GI50 lookup, key: CC[C@]12C=CCN3CC[C@@]4(c5ccc(OC)cc5N(C)[C@H]4[C@@](O)(C(=O)OC)[C@@H]1OC(=O)CCCC[P+](C1CCCCC1)(C1CCCCC1)C1CCCCC1)[C@@H]32 [10d]
### Response 4290

### Prompt // GI50 lookup, key: CC[C@]12C=CCN3CC[C@@]4(c5ccc(OC)cc5N(C)[C@H]4[C@@](O)(C(=O)OC)[C@@H]1OC(=O)CCCC[P+](c1ccc(OC)cc1)(c1ccc(OC)cc1)c1ccc(OC)cc1)[C@@H]32 [10b]
### Response 2200

### Prompt // GI50 lookup, key: CC[C@]12C=CCN3CC[C@@]4(c5ccc(OC)cc5N(C)[C@H]4[C@@](O)(C(=O)OC)[C@@H]1OC(=O)CCCC[P+](c1ccccc1)(c1ccccc1)c1ccccc1)[C@@H]32 [compound 4, reference compound]
### Response 3520
